biological target: Carbonic anhydrase 9 (Homo sapiens); experiment: Binding affinity to recombinant human CA9 by DSF-based fluorescence thermal shift assay
VALUE_KIND: Kd (nM)
Hi! Could you send only the number? It should be in nM, unit omitted.

Kd reading for Cc1cc(N2CC(C(=O)NN)CC2=O)c(Cl)c(C)c1S(N)(=O)=O (centres undefined) : 330

Memo: Cc1cc(N2CC(C(=O)N/N=C/c3ccccc3)CC2=O)cc(C)c1S(N)(=O)=O (centres undefined) , reported Kd: 2000

Looking up Cc1cc(N2CC(C(=O)O)CC2=O)cc(C)c1S(N)(=O)=O (centres undefined) , I found its Kd recorded as 5000

The recorded Kd for COC(=O)C1CC(=O)N(c2cc(C)c(S(N)(=O)=O)c(C)c2)C1 (centres undefined) is 3000

Entry Cc1cc(N2CC(c3n[nH]c(=S)o3)CC2=O)cc(C)c1S(N)(=O)=O (centres undefined) , Kd reported as 3300

Next:
The compound Cc1cc(S(N)(=O)=O)c(C)cc1N1CC(C(=O)N/N=C/c2ccc([N+](=O)[O-])cc2)CC1=O (centres undefined) showed Kd equal to 1100

The compound COC(=O)C1CC(=O)N(c2cc(C)c(S(N)(=O)=O)c(C)c2Cl)C1 (centres undefined) showed Kd equal to 100

Entry under test: COc1ccc(/C=N/NC(=O)C2CC(=O)N(c3cc(C)c(S(N)(=O)=O)c(C)c3Cl)C2)cc1 (centres undefined) . Its Kd was 77

Form: compound = Cc1cc(NCC(CC(=O)O)c2n[nH]c(=S)n2-c2ccccc2)c(Cl)c(C)c1S(N)(=O)=O (centres undefined) ; Kd = 1000

* * *

Each entry below carries its reported pKd.
biological target: Carbonic anhydrase 9 (Homo sapiens, UniProt Q16790); test: Binding affinity to recombinant human CA9 by DSF-based fluorescence thermal shift assay
// pKd: -log10(molar conc.)

Check out these entries, answers already filled in.
Value of measured pKd for the entry Cc1cc(S(N)(=O)=O)c(C)cc1N1CC(C(=O)NN)CC1=O (stereo not given) : 5.05

The compound NS(=O)(=O)c1ccc(N2CC(C(=O)O)CC2=O)cc1 (stereo not given) showed pKd equal to 6.48

More entries:
# pKd (compound: Cc1cc(S(N)(=O)=O)c(C)cc1N1CC(C(=O)N/N=C/c2ccccc2)CC1=O (stereo not given) ) is 5.85

Lab book: pKd of COc1ccc(/C=N/NC(=O)C2CC(=O)N(c3cc(C)c(S(N)(=O)=O)c(C)c3)C2)cc1 (stereo not given) noted as 5.70

* * *

molecular target: Carbonic anhydrase 5A, mitochondrial (Homo sapiens); experiment: Binding affinity to recombinant full length C-terminal His6x-tagged human CA5A expressed in Escherichia coli BL21(DE3) by DSF-based fluorescence thermal shift assay
Sequence (P35218 whole entry): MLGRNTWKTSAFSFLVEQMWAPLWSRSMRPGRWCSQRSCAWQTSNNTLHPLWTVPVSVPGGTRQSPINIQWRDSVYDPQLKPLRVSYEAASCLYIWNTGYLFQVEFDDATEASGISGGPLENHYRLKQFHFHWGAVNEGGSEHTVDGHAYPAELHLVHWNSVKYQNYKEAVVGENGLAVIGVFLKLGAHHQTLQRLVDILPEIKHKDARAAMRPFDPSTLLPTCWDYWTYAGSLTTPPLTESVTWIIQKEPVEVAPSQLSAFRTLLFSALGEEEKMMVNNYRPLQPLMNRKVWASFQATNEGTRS
VALUE_KIND: pKd
Would you please state pKd, meaning minus log10 of the concentration in mol/L, as a bare number?

Observe how each entry below is paired with its result.
# pKd of Cc1cc(N2CC(C(=O)O)CC2=O)cc(C)c1S(N)(=O)=O (stereo not given) = 5.08

// pKd value for Cc1cc(N2CC(C(=O)N/N=C/c3ccccc3)CC2=O)cc(C)c1S(N)(=O)=O (stereo not given) : 5.70

Continuing:
// field: pKd; key: NNC(=O)C1CC(=O)N(c2ccc(S(N)(=O)=O)cc2)C1 (stereo not given) ; value = 4.30

Looking up NS(=O)(=O)c1ccc(N2CC(C(=O)N/N=C/c3ccccc3)CC2=O)cc1 (stereo not given) , I see its pKd listed as 5.77

The compound listed as Cc1cc(N2CC(C(=O)NN)CC2=O)cc(C)c1S(N)(=O)=O (stereo not given) shows pKd equal to 4.70

* * *

Entries annotated with measured Kd
target: Carbonic anhydrase 7 (Homo sapiens); experiment: Binding affinity to recombinant human CA7 by DSF-based fluorescence thermal shift assay
Sequence (P43166 whole entry): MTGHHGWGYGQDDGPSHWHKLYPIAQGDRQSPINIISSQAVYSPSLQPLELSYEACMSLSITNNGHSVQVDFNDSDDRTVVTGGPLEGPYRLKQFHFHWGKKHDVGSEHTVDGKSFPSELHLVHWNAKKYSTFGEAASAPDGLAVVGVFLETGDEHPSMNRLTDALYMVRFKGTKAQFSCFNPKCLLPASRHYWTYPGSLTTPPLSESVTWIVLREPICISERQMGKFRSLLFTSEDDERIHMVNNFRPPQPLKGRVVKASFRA
The answer is to be given in nM; state only the numeric part.

Quick note, Kd for NS(=O)(=O)c1ccc(N2CC(C(=O)O)CC2=O)cc1 (stereo not given) landed at 460

Sure, the documented Kd for COC(=O)C1CC(=O)N(c2ccc(S(N)(=O)=O)cc2)C1 (stereo not given) is 130

Kd measured on Cc1cc(N2CC(C(=O)NNC(=S)Nc3ccccc3)CC2=O)c(Cl)c(C)c1S(N)(=O)=O (stereo not given) = 100

Now take the following molecule into account.
Entry Cc1cc(N2CC(c3n[nH]c(=S)n3-c3ccccc3)CC2=O)c(Cl)c(C)c1S(N)(=O)=O (stereo not given) — recorded Kd = 8.7

* * *

target: Carbonic anhydrase 12 (Homo sapiens, UniProt O43570); experiment: Binding affinity to recombinant human CA12 by DSF-based fluorescence thermal shift assay
Sequence (O43570 whole entry): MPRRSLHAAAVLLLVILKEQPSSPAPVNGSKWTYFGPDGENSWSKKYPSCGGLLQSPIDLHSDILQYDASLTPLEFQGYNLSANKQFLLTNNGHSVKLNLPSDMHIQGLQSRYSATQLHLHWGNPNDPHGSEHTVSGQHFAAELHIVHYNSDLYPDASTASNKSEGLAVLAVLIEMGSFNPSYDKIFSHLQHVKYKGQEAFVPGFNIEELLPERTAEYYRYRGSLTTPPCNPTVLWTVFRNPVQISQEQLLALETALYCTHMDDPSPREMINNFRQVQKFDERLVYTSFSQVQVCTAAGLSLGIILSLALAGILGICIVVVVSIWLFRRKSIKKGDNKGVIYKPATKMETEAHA
# Kd per entry
Report only the number, with the unit nM understood.

# Kd of Cc1cc(N2CC(C(=O)NNC(=S)Nc3ccccc3)CC2=O)c(Cl)c(C)c1S(N)(=O)=O (configuration not stated) = 360

Summary for this compound, Cc1cc(N2CC(C(=O)O)CC2=O)c(Cl)c(C)c1S(N)(=O)=O (configuration not stated) : Kd is 1300

Given item Cc1cc(C)n(NC(=O)C2CC(=O)N(c3cc(C)c(S(N)(=O)=O)c(C)c3Cl)C2)n1 (configuration not stated) , the value recorded as its Kd is 2000

Proceeding to the next compound to report its Kd.
Consider Cc1cc(S(N)(=O)=O)c(C)cc1N1CC(C(=O)N/N=C/c2ccc([N+](=O)[O-])cc2)CC1=O (configuration not stated) . Its measured Kd is 14000

* * *

target: UniProtKB Q16790; assay: Binding affinity to recombinant human CA9 by DSF-based fluorescence thermal shift assay
In this section, each of the compounds is paired with its reported Kd.
Entry rule: numbers only, all in nM.

Sample Cc1cc(C)n(NC(=O)C2CC(=O)N(c3cc(C)c(S(N)(=O)=O)c(C)c3)C2)n1 (stereo not given) ; Kd observed: 2000

Data point: Cc1cc(N2CC(C(=O)N/N=C/c3ccc(Cl)cc3)CC2=O)c(Cl)c(C)c1S(N)(=O)=O (stereo not given) ; Kd = 91

For this compound ( Cc1cc(N2CC(C(=O)NN3CC(C(=O)O)CC3=O)CC2=O)cc(C)c1S(N)(=O)=O (stereo not given) ), measured Kd is 4000

# ---- query compound ----
// field: Kd; key: Cc1cc(N2CC(C(=O)NNC(=S)Nc3ccccc3)CC2=O)cc(C)c1S(N)(=O)=O (stereo not given) ; value = 1400

* * *

target: Carbonic anhydrase 2 (Homo sapiens); assay: Binding affinity to recombinant human CA2 by DSF-based fluorescence thermal shift assay
VALUE_KIND: pKd
// scale note: pKd = -log10(conc_M); give the bare number

// known answers, use as guide
The value of pKd measured for the compound Cc1cc(NCC(CC(=O)O)c2n[nH]c(=S)n2-c2ccccc2)c(Cl)c(C)c1S(N)(=O)=O (stereo not given) turned out to be 4.77

// recorded pKd for Cc1cc(S(N)(=O)=O)c(C)cc1N1CC(C(=O)O)CC1=O (stereo not given) : 5.19

Lab book: pKd of Cc1cc(N2CC(C(=O)N/N=C/c3ccc([N+](=O)[O-])cc3)CC2=O)cc(C)c1S(N)(=O)=O (stereo not given) noted as 5.77

The compound listed as Cc1cc(N2CC(C(=O)N/N=C/c3ccccc3)CC2=O)cc(C)c1S(N)(=O)=O (stereo not given) has a reported pKd of 5.66

pKd reported for this compound COC(=O)C1CC(=O)N(c2cc(C)c(S(N)(=O)=O)c(C)c2)C1 (stereo not given) : 5.70

// pKd lookup, compound = Cc1cc(N2CC(C(=O)N/N=C/c3ccc(Cl)cc3)CC2=O)c(Cl)c(C)c1S(N)(=O)=O (stereo not given) , result: 7.00

# next compound below
Value of pKd reported for the compound NS(=O)(=O)c1ccc(NC(=O)C2CC(=O)N(c3cccc(Br)c3)C2)cc1 (stereo not given) is 6.72

* * *

Reported pKd by item:
biological target: Carbonic anhydrase 9 (Homo sapiens); test: Binding affinity to recombinant human CA9 by DSF-based fluorescence thermal shift assay
pKd is a log-scale quantity: -log10 of the concentration expressed in molar.

Entry Cc1cc(N2CC(c3n[nH]c(=S)o3)CC2=O)c(Cl)c(C)c1S(N)(=O)=O (centres undefined) under Carbonic anhydrase 9 (Homo sapiens) had pKd of 7.17

Here Cc1cc(N2CC(c3n[nH]c(=S)n3-c3ccccc3)CC2=O)cc(C)c1S(N)(=O)=O (centres undefined) was tested on Carbonic anhydrase 9 (Homo sapiens), and its pKd came to 5.85

* * *

target: Carbonic anhydrase 13 (Homo sapiens, UniProt Q8N1Q1); test: Binding affinity to recombinant human CA13 by DSF-based fluorescence thermal shift assay
Sequence (Q8N1Q1 whole entry): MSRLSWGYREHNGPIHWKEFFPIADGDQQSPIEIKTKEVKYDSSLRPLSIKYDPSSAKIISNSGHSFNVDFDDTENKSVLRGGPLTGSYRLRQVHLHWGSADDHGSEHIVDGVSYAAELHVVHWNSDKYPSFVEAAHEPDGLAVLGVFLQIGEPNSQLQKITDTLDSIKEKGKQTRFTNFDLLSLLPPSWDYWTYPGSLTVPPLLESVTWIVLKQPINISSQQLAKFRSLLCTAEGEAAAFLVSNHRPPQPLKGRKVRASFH
pKd: −log10 of the molar value.
Label Yes when pKd is at or above 6; anything below gets No.

Recorded results for 2 compounds are shown here.
Dear colleague, could you confirm whether COC(=O)C1CC(=O)N(c2cc(C)c(S(N)(=O)=O)c(C)c2)C1 (stereo not given) has pKd at or above 6?
No

Given Cc1cc(S(N)(=O)=O)c(C)cc1N1CC(C(=O)N/N=C/c2ccc([N+](=O)[O-])cc2)CC1=O (stereo not given) , state whether its pKd is at least 6.
Yes

We now examine a further compound.
pKd >= 6 for Cc1c(Br)c(N2CC(C(=O)N/N=C/c3ccccc3)CC2=O)c(Br)c(C)c1S(N)(=O)=O (stereo not given) ?
No
